test: yeast display, Sf9 membrane polyspecificity reagent, FACS + sequencing; frameworks hold sequencing errors
attribute-measured: polyreactivity (PSR sort gate)

These solved cases illustrate the format of a correct answer.
macromolecule-sequence: QVQLVESGGGLVQAGGSLRLSCAASGYIFDYYAMGWYRQAPGKESELVAAISSSGGTTYYADSVKGRFTISRDNAKNTFYLQMNSLKPEDTAVYYCAARKSRWHRGYYYWGQGTQVTVSS
polyreactivity (PSR sort gate): high polyreactivity

macromolecule-sequence: QVQLVESGGGLVQAGGRLRLSCAASGSIFHLYMGWYRQAPGKERELVAVINSSGDSTYYADSVKGRFTISRDNAKNTVYLQMNSLKPEDTAVYYCNARRRGPRYLYGYWGQGSQVTVSS
polyreactivity (PSR sort gate): high polyreactivity

macromolecule-sequence: QVQLVESGGGLVQAGGSLRLSCAASGITFGWNVAMGWYRQAPGKERELVATITNGGSTKYADSVKGRFTISRDNAKNTVYLQMNSLKPEDTAVYYCAARVYHRFEWFHQYDYWGQGTQVTVSS
polyreactivity (PSR sort gate): high polyreactivity

macromolecule-sequence: QVQLVESGGGLVQAGGSLRFSCAASGSIFDIYGMGWYRQAPGKESELVASISGGAGSTNYADSVKGRFTISRDYAKNTVYLQMNSLKPEDTAVYYCAAVCADPTEYDYWGQGTQVTVSS
polyreactivity (PSR sort gate): low polyreactivity

macromolecule-sequence: QVQLVESGGGLVQAGGSLRLSCAASGSTFDTYAMGWYRQAPGKERELVAAISYRGGNTYYADSVKGRFTISRDNAKNTVYLQMNSLKPEDTAVYYCAASYFDPASIPVAFNYWGQGTQVTVSS
polyreactivity (PSR sort gate): low polyreactivity

macromolecule-sequence: QVQLVESGGGLDQAGGSLRLSCAASGYTYGYYAMGWYRQAPGKERELVATISYSGGTTYYADSVRGRFTISRDNAKNTVYLQMNSLKPEDTAVYYCNARGYKRLYGYWVQGTQVTVSS
polyreactivity (PSR sort gate): high polyreactivity

Batch request: polyreactivity (PSR sort gate) per item, same order as input.
1. QDQLVESGVGLVHAGGSLRLSCAATGRIFTYNAMGWYRQAPWKEREVVAAITSSGGSTYYADSVKGRFTISRDNAKNTVYLQMNSLKQEDSAVSYCATVRRGRDYWGQGTQVTVSS
2. QVQLVESGAGLVQAGGSLRLSCAASGRIFPGYVMGWYRQAHGKERELVAAITRGGSTYYADSVKGRFTISRDNAKNTVYLQMNSLKPDDTAVYYCAAKHSHIHYNYWGQGTQVTVSS
3. QDQLVESGGGLVQAGGSLRLSCAASGFIFGNYALGWYRQAPGKERELVATITWRGGSTYYADSVKGRFTISRDNAKNTVYLQMNSLKPEDTAVYYCARPYASYSSFYYYGYWGQGTQVTVSS
4. QDHLVESGGGIVQAGGSLRLSCAASGRTFHLNAIGWYRQAPGKARELVAAITNSGGRTSNADSVKGRFTISRDNAKNTVYLQMNSLKPQVTEVFFCNVEVTYSSGKYDYWGQGTQVTVSS
5. QVQLVESGGGLVQAGGSLRLSCAASGRTSVGYVMGWYRQAPGKERELVASITSGGSTYYADSVKGRFTISRDNAKNTVYLQMNSLKPEDTAVYYCAAQLKSHRTYGHDYWGQGTQVTVSS
6. QLQLVESGGGLVQAGGSLRLSCAASGSTFVVYARGWYRQAPGKERELVAAITRDDGRTYYADSVKGRFTISRDNAKNTVYLQMNSLKPEDTAVYYCAAGYSFGYGYWGQGTQVTVSS
7. QVQLVESGGGLVQAGGSLRLSCAASGFTFISNAMGWYRQAPGKERELVAAISSSGGRTYYADSVKGRFTISRDNAKNTVYLQMNSLKPEDTAVYYCNADRSLLYSRKIEYDYWGQGTQVSVSS

a:
["high polyreactivity", "low polyreactivity", "high polyreactivity", "low polyreactivity", "low polyreactivity", "low polyreactivity", "low polyreactivity"]
